Each recorded value in this set is attributed to paper PMC8119466.

Target of assay: recombinant PRL-3 (Homo sapiens, UniProt O75365)
Construct: 6xHis (N, cleaved yes); made in house; host or cells: E. coli One Shot BL21 Star
Sequence (O75365 whole entry): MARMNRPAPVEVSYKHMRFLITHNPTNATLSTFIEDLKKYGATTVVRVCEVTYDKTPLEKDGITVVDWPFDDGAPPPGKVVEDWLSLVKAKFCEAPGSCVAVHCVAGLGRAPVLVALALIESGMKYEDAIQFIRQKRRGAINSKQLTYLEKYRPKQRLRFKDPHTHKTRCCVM
Method description: In vitro phosphatase assay (DiFMUP hydrolysis), PRL-3
Assay type: biochemical
Study conditions: FDA-approved drug screen; compared to DMSO
Counter-ions that a name gives are not always drawn.
Quick rule for you: % Phosphatase Activity (compared to DMSO) PRL-3 under 80% gets rule met, anything else gets rule not met.

Compound | Class label
Cc1c(C(=O)NN2CCCCC2)nn(-c2ccc(Cl)cc2Cl)c1-c1ccc(Cl)cc1 | rule not met
CCCCOc1cc(C(=O)NCCN(CC)CC)c2ccccc2n1 [Dibucaine HCl] | rule not met
CC(=O)O[C@]1(C(C)=O)CC[C@H]2[C@@H]3C[C@H](C)C4=CC(=O)CC[C@]4(C)[C@H]3CC[C@@]21C [Medroxyprogesterone acetate] | rule not met
CO/N=C(\C(=O)N[C@@H]1C(=O)N2C(C(=O)O)=C(CSC(=O)c3ccco3)CS[C@H]12)c1csc(N)n1.Cl [Ceftiofur HCl] | rule not met
Nc1nc2[nH]cc(CCc3ccc(C(=O)N[C@@H](CCC(=O)O)C(=O)O)cc3)c2c(=O)[nH]1 | rule not met
COc1cc2nccc(Oc3ccc(NC(=O)NC4CC4)c(Cl)c3)c2cc1C(N)=O [Lenvatinib (E7080)] | rule not met
CCN1CCN(C(=O)N[C@@H](C(=O)N[C@@H]2C(=O)N3[C@@H]2SC(C)(C)[C@@H]3C(=O)O)c2ccccc2)C(=O)C1=O [Piperacillin Sodium] | rule met
CCOc1cc2ncc(C#N)c(Nc3ccc(F)c(Cl)c3)c2cc1NC(=O)/C=C/CN(C)C [Pelitinib (EKB-569)] | rule not met
NC[C@H](O)c1ccc(O)c(O)c1.O.O=C(O)C(O)C(O)C(=O)O [Noradrenaline bitartrate monohydrate] | rule not met
S=c1nc[nH]c2nc[nH]c12 | rule met
CNC[C@H](O)c1cccc(O)c1 [Phenylephrine HCl] | rule not met

###

Here, each record is paired with measured % Phosphatase Activity (compared to DMSO) PRL-3 data.
Target of assay: recombinant PRL-3 (Homo sapiens)
Construct: 6xHis (N, cleaved yes); made in house; host or cells: E. coli One Shot BL21 Star
Method description: In vitro phosphatase assay (DiFMUP hydrolysis), PRL-3
Format: biochemical
Study conditions: FDA-approved drug screen; compared to DMSO
Where a name gives a salt, the structure may show the parent alone.
Readout type: % Phosphatase Activity (compared to DMSO) PRL-3 (%)

Compound | Observed result
CN(C)c1ccc2nc3ccc(=[N+](C)C)cc-3sc2c1 | 45
CC(C)NCC(O)COc1cccc2ccccc12.Cl (stereo not drawn) [Propranolol HCl] | 70
CC(C)C[C@H](NC(=O)[C@@H](NC(=O)c1cccc(-c2ccccc2)n1)[C@@H](C)O)B(O)O | 82
Clc1ccc2c(c1)C(N1CCNCC1)=Nc1ccccc1O2 | 88
Nc1nc(N)nc(-c2cc(Cl)ccc2Cl)n1 | 81
CC1(C)S[C@@H]2[C@H](NC(=O)[C@H](N)c3ccccc3)C(=O)N2[C@H]1C(=O)O [Ampicillin sodium] | 92
CC(NCCc1ccc(O)cc1)C(O)c1ccc(O)cc1 (stereo not drawn) [Ritodrine HCl] | 83
O=C(CCNNC(=O)c1ccncc1)NCc1ccccc1 [Nialamide] | 96
O=C(CCCN1CCN(c2ccccn2)CC1)c1ccc(F)cc1 | 88
O=C(c1ccc(OCCN2CCCCC2)cc1)c1c(-c2ccc(O)cc2)sc2cc(O)ccc12 [Raloxifene HCl] | 74
CC1CC(OC(=O)C(O)c2ccccc2)CC(C)(C)C1 (stereo not drawn) [Cyclandelate] | 74
COC(=O)Nc1nc2ccc(C(=O)c3ccccc3)cc2[nH]1 | 79
NC(=O)c1cccnc1 [Nicotinamide (Vitamin B3)] | 98
CCOC(=O)n1ccn(C)c1=S | 78
Nc1nc(=O)c2c([nH]1)NC[C@H](CNc1ccc(C(=O)N[C@@H](CCC(=O)[O-])C(=O)[O-])cc1)N2C=O.[Ca+2] [Calcium Levofolinate] | 105
CN1CCC(=C2c3ccccc3CC(=O)c3sccc32)CC1 [Ketotifen Fumarate] | 89
OC1(c2ccc(Cl)c(C(F)(F)F)c2)CCN(CCCC(c2ccc(F)cc2)c2ccc(F)cc2)CC1 | 89
CC(=O)OCC(=O)[C@H]1CC[C@H]2[C@@H]3CCC4=CC(=O)CC[C@]4(C)[C@H]3CC[C@]12C [Deoxycorticosterone acetate] | 74
CC[C@H](C)[C@H]1O[C@]2(CC[C@@H]1C)C[C@@H]1C[C@@H](C/C=C(\C)[C@@H](O[C@H]3C[C@H](OC)[C@@H](O[C@H]4C[C@H](OC)[C@@H](O)[C@H](C)O4)[C@H](C)O3)[C@@H](C)/C=C/C=C3\CO[C@@H]4[C@H](O)C(C)=C[C@@H](C(=O)O1)[C@]34O)O2 | 69
C#C[C@]1(OC(C)=O)CC[C@H]2[C@@H]3CCC4=C[C@@H](OC(C)=O)CC[C@@H]4[C@H]3CC[C@@]21C [Ethynodiol diacetate] | 88
CC(C)C(=O)OCC(=O)[C@@]12O[C@H](C3CCCCC3)O[C@@H]1C[C@H]1[C@@H]3CCC4=CC(=O)C=C[C@]4(C)[C@H]3[C@@H](O)C[C@@]12C [Ciclesonide] | 88
CC(=O)[C@H]1CC[C@H]2[C@@H]3C=CC4=CC(=O)CC[C@@]4(C)[C@@H]3CC[C@]12C | 67
COCCOC(=O)C1=C(C)NC(C)=C(C(=O)OC(C)C)C1c1cccc([N+](=O)[O-])c1 (stereo not drawn) | 88
CCN1CCN(Cc2ccc(Nc3ncc(F)c(-c4cc(F)c5nc(C)n(C(C)C)c5c4)n3)nc2)CC1 | 99
CCCCCCOC(=O)N=C(N)c1ccc(NCc2nc3cc(C(=O)N(CCC(=O)OCC)c4ccccn4)ccc3n2C)cc1 [Dabigatran Etexilate] | 106
COc1cc2c(Oc3ccc(NC(=O)C4(C(=O)Nc5ccc(F)cc5)CC4)cc3F)ccnc2cc1OCCCN1CCOCC1 | 97
Cc1nc(-c2ccc(OCC(C)C)c(C#N)c2)sc1C(=O)O | 89
COc1cc2nc(N3CCN(C(=O)C4COc5ccccc5O4)CC3)nc(N)c2cc1OC (stereo not drawn) [Doxazosin Mesylate] | 305
CCOc1ccc(NC(C)=O)cc1 | 81
C[C@@H]1C/C=C/C=C/C=C/C=C/[C@H](O[C@@H]2O[C@H](C)[C@@H](O)[C@H](N)[C@@H]2O)C[C@@H]2O[C@](O)(C[C@@H](O)C[C@H]3O[C@@H]3/C=C/C(=O)O1)C[C@H](O)[C@H]2C(=O)O | 78
